# Tested On: Histamine H3 receptor (Homo sapiens, UniProt Q9Y5N1)
# Sequence (Q9Y5N1 whole entry): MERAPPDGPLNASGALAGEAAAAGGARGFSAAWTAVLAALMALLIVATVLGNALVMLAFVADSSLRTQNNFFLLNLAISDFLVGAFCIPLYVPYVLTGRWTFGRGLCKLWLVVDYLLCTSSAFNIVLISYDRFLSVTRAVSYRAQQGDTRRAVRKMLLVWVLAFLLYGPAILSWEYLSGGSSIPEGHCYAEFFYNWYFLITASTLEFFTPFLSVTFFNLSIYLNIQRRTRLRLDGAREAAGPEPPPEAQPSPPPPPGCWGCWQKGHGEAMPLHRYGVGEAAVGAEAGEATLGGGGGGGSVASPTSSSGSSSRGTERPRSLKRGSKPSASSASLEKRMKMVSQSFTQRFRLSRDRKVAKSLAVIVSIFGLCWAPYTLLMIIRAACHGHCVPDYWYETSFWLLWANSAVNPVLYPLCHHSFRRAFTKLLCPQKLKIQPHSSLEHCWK
Assay Readout: pKi
Bear in mind: pKi is minus log10 of a mol/L concentration; give just that figure.

C[C@@H](NC(=O)c1ccco1)C(=O)N1CCCN(CCCOc2ccc(-c3noc(-c4ccsc4)n3)c(F)c2)CC1	7.31
CC(C)CCc1nc(-c2ccc(OCCCN3CCCN(C(=O)[C@@H](C)NC(=O)c4ccco4)CC3)cc2F)no1	8.07
C[C@@H](NC(=O)c1ccco1)C(=O)N1CCCN(CCCOc2ccc(-c3noc(-c4ccco4)n3)c(F)c2)CC1	6.77
C[C@@H](NC(=O)c1ccco1)C(=O)N1CCCN(CCCOc2ccc(-c3noc(CCc4ccccc4)n3)c(F)c2)CC1	8.12
C[C@@H](NC(=O)c1ccc(Cl)cc1)C(=O)N1CCCN(CCCOc2ccc(-c3noc(CC4CCCC4)n3)c(F)c2)CC1	7.51
C[C@@H](NC(=O)c1cnccn1)C(=O)N1CCN(CCCOc2ccc(-c3noc(-c4ccccc4)n3)c(F)c2)CC1	7.54
CC(C)CC(=O)N[C@H](C)C(=O)N1CCCN(CCCOc2ccc(-c3noc(CC4CCCC4)n3)c(F)c2)CC1	7.89

For reference, reported pKi for C[C@@H](NC(=O)c1cccc(C#N)c1)C(=O)N1CCN(CCCOc2ccc(-c3noc(CC4CCCC4)n3)c(F)c2)CC1 stands at 7.46

###

Here we list compounds with their recorded pKi when tested on Histamine H3 receptor (Homo sapiens, UniProt Q9Y5N1).
Just the number, please; pKi means minus log10 of the concentration in mol/L.

Check out these entries, answers already filled in.
C[C@@H](NC(=O)c1ccco1)C(=O)N1CCCN(CCCOc2ccc(-c3noc(-c4ccncc4)n3)c(F)c2)CC1	6.28
C[C@@H](NC(=O)c1ccco1)C(=O)N1CCCN(CCCOc2ccc(-c3noc(-c4cncs4)n3)c(F)c2)CC1	6.62
C[C@@H](NC(=O)CCN1CCOCC1)C(=O)N1CCCN(CCCOc2ccc(-c3noc(CC4CCCC4)n3)c(F)c2)CC1	7.89
C[C@@H](NC(=O)c1ccco1)C(=O)N1CCCN(CCCOc2ccc(-c3noc(C4CCCCCC4)n3)c(F)c2)CC1	7.82
C[C@@H](NC(=O)c1ccc(Cl)c(Cl)c1)C(=O)N1CCCN(CCCOc2ccc(-c3noc(CC4CCCC4)n3)c(F)c2)CC1	6.85

Form field pKi, entry COc1ccc(C(=O)N[C@H](C)C(=O)N2CCN(CCCOc3ccc(-c4noc(CC5CCCC5)n4)c(F)c3)CC2)cc1 : 7.96

The compound listed as CCOCC(=O)N[C@H](C)C(=O)N1CCN(CCCOc2ccc(-c3noc(-c4ccccc4)n3)c(F)c2)CC1 shows pKi equal to 7.00

// field: pKi; key: C[C@H](NC(=O)OC(C)(C)C)c1nc(-c2ccc(OCCCN3CCCN(C(=O)[C@@H](C)NC(=O)c4ccco4)CC3)cc2F)no1 ; value = 6.85

So for C[C@@H](NC(=O)CCN1CCOCC1)C(=O)N1CCN(CCCOc2ccc(-c3noc(CC4CCCC4)n3)c(F)c2)CC1 , the logged pKi turned out to be 7.43

// pKi lookup, compound = CC(=O)N[C@H](C)C(=O)N1CCN(CCCOc2ccc(-c3noc(CC4CCCC4)n3)c(F)c2)CC1 , result: 6.70

###

molecules and their reported Ki
# Tested On: Histamine H3 receptor (Homo sapiens, UniProt Q9Y5N1)
# Test Details: Binding affinity for human histamine H3 receptor on human colon cells
# Assay type: cell-based
Your answer is read as µM, so omit the unit and give the number.

Solved cases (4 shown):
C[C@@H](NC(=O)c1ccccc1Cl)C(=O)N1CCN(CCCOc2ccc(-c3noc(CC4CCCC4)n3)c(F)c2)CC1	0.0086
C[C@@H](N)C(=O)N1CCCN(CCCOc2ccc(-c3noc(C4CC4)n3)c(F)c2)CC1	0.24
COc1ccc(C(=O)N[C@H](C)C(=O)N2CCN(CCCOc3ccc(-c4noc(CC5CCCC5)n4)c(F)c3)CC2)cc1OC	0.024
C[C@@H](NC(=O)c1ccsc1)C(=O)N1CCN(CCCOc2ccc(-c3noc(-c4ccccc4)n3)c(F)c2)CC1	0.028

Field Ki (entry C[C@@H](NC(=O)c1ccco1)C(=O)N1CCN(CCCOc2ccc(-c3noc(-c4ccccc4)n3)c(F)c2)CC1 (stereo in doubt; 13q) ) reads 0.083

Consider C[C@@H](NC(=O)c1ccco1)C(=O)N1CCN(CCCOc2ccc(-c3noc(-c4ccccc4)n3)c(F)c2)CC1 (stereo in doubt; 13p) . Its measured Ki is 0.043

The molecule C[C@@H](NC(=O)c1ccc(Cl)c(Cl)c1)C(=O)N1CCN(CCCOc2ccc(-c3noc(CC4CCCC4)n3)c(F)c2)CC1 showed Ki equal to 0.015

###

Examples of compounds with documented pKi follow.
# Tested On: Histamine H3 receptor (Rattus norvegicus, UniProt Q9QYN8)
# Sequence (Q9QYN8 whole entry): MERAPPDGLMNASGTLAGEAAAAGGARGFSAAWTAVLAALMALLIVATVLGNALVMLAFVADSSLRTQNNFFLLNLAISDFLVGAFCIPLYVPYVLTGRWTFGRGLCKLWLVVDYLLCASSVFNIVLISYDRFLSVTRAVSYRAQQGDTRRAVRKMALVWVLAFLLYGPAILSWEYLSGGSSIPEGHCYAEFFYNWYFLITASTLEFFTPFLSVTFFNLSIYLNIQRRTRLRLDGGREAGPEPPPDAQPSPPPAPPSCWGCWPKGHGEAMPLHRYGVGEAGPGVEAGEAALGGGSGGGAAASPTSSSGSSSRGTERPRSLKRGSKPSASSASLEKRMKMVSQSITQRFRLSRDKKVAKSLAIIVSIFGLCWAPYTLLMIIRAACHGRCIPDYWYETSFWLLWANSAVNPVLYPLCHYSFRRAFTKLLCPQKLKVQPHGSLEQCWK
Field pKi (float): negative decimal logarithm of the concentration in molar.

C[C@@H](NC(=O)c1ccc(Cl)c(Cl)c1)C(=O)N1CCCN(CCCOc2ccc(-c3noc(CC4CCCC4)n3)c(F)c2)CC1	7.51

Value sought: pKi, system Histamine H3 receptor (Rattus norvegicus, UniProt Q9QYN8), item C[C@@H](NC(=O)CC(C)(C)C)C(=O)N1CCN(CCCOc2ccc(-c3noc(CC4CCCC4)n3)c(F)c2)CC1 . Result: 8.19

Let me check: CC(=O)N[C@H](C)C(=O)N1CCN(CCCOc2ccc(-c3noc(CC4CCCC4)n3)c(F)c2)CC1 , system Histamine H3 receptor (Rattus norvegicus, UniProt Q9QYN8), measured pKi is 8.05

Field pKi (system: Histamine H3 receptor (Rattus norvegicus, UniProt Q9QYN8)) for entry C[C@@H](NC(=O)c1ccc(Cl)cc1)C(=O)N1CCN(CCCOc2ccc(-c3noc(CC4CCCC4)n3)c(F)c2)CC1 = 8.55

Param item: C[C@@H](NC(=O)c1ccco1)C(=O)N1CCCN(CCCOc2ccc(-c3noc(C4CCCCC4)n3)c(F)c2)CC1 ; param system: Histamine H3 receptor (Rattus norvegicus, UniProt Q9QYN8); output pKi: 8.62

###

# Tested On: UniProt:Q9H3N8
# Sequence (Q9H3N8 whole entry): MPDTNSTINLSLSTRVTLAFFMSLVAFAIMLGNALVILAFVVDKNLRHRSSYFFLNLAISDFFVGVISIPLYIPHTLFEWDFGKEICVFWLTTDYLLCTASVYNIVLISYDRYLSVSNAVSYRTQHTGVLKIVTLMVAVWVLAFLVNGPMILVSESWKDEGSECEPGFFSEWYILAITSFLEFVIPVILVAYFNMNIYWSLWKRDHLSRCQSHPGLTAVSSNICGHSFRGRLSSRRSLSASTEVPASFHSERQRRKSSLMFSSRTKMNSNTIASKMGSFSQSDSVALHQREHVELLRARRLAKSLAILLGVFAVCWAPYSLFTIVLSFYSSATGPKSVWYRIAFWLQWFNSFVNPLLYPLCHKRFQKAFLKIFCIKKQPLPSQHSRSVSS
Assay Readout: Ki

// returns Ki for C[C@@H](NC(=O)c1ccc(N(C)C)cc1)C(=O)N1CCN(CCCOc2ccc(-c3noc(CC4CCCC4)n3)c(F)c2)CC1 with UniProt:Q9H3N8; value = > 10 µM

###

Values of Ki reported for Histamine H3 receptor (Rattus norvegicus) appear below.
Please respond with the number in nM and leave the unit unwritten.

CC(C)C(NC(=O)OC(C)(C)C)c1nc(-c2ccc(OCCCN3CCCN(C(=O)[C@@H](C)NC(=O)c4ccco4)CC3)cc2F)no1 (stereo partly drawn)	9.8

Documented Ki of Cc1cccc(C(=O)N[C@H](C)C(=O)N2CCN(CCCOc3ccc(-c4noc(CC5CCCC5)n4)c(F)c3)CC2)c1 : 4.7

Just so you know, measured Ki for C[C@@H](NC(=O)c1ccco1)C(=O)N1CCCN(CCCOc2ccc(-c3noc(CC(C)(C)C)n3)c(F)c2)CC1 came out at 2.4

Noted for C[C@@H](NC(=O)c1cnccn1)C(=O)N1CCN(CCCOc2ccc(-c3noc(-c4ccccc4)n3)c(F)c2)CC1 : its Ki reads 1.7

Summary for this molecule, C[C@@H](NC(=O)c1ccco1)C(=O)N1CCCN(CCCOc2ccc(-c3noc(CCc4ccccc4)n3)c(F)c2)CC1 : Ki is 0.94

Query CC(=O)N[C@H](C)C(=O)N1CCCN(CCCOc2ccc(-c3noc(CC4CCCC4)n3)c(F)c2)CC1 yields Ki of 2

Reported Ki of C[C@@H](NC(=O)c1ccco1)C(=O)N1CCCN(CCCOc2ccc(-c3noc(-c4ccoc4)n3)c(F)c2)CC1 : 1.7

Quick note, Ki for C[C@@H](NC(=O)c1ccco1)C(=O)N1CCCN(CCCOc2ccc(-c3noc(-c4ccncc4)n3)c(F)c2)CC1 landed at 11

###

Measured pKi (Histamine H3 receptor (Rattus norvegicus, UniProt Q9QYN8))
pKi field: float, defined as -log10 of concentration (mol/L).

The cases that follow already have their pKi on record.
CC(C)Cc1nc(-c2ccc(OCCCN3CCCN(C(=O)[C@@H](C)NC(=O)c4ccco4)CC3)cc2F)no1	8.77
CCCCC(=O)N[C@H](C)C(=O)N1CCN(CCCOc2ccc(-c3noc(CC4CCCC4)n3)c(F)c2)CC1	8.59
C[C@@H](NC(=O)CCN1CCOCC1)C(=O)N1CCCN(CCCOc2ccc(-c3noc(CC4CCCC4)n3)c(F)c2)CC1	9.24
C[C@@H](N)C(=O)N1CCN(CCCOc2ccc(-c3noc(C4CC4)n3)c(F)c2)CC1	8.51
C[C@@H](NC(=O)c1ccco1)C(=O)N1CCCN(CCCOc2ccc(-c3noc(C4CCCCCC4)n3)c(F)c2)CC1	8.48
CCCCCC(=O)c1ccc(OCCCN2CCN(C(=O)OCC)CC2)cc1	9.00
C[C@@H](NC(=O)c1cccc(N(C)C)c1)C(=O)N1CCN(CCCOc2ccc(-c3noc(CC4CCCC4)n3)c(F)c2)CC1	8.59
C[C@@H](NC(=O)C1CCCC1)C(=O)N1CCN(CCCOc2ccc(-c3noc(-c4ccccc4)n3)c(F)c2)CC1	8.15

Note: attention shifts to another entry.
GET /values?item= COc1cccc(C(=O)N[C@H](C)C(=O)N2CCN(CCCOc3ccc(-c4noc(CC5CCCC5)n4)c(F)c3)CC2)c1 &system= Histamine H3 receptor (Rattus norvegicus, UniProt Q9QYN8) returns pKi: 8.44

# credit: ChEMBL document CHEMBL1147425
